# Tested on: KM12
# Procedure Details: NCI tumour cell line growth inhibition, 48 h
Calls of active or inactive are those of the source. No stated cut-off is given here; in the data, active = GI50 up to about 1.1 µM and inactive = higher.
Allowed answers: active, inactive

Reference set (5 entries):
[
  {
    "Molecule": "CCOP(=O)(CCCC(O)CNc1nc(N)nc(Cl)c1/N=N/c1ccc(Cl)cc1)OCC (stereo unspecified)",
    "Study Target": "KM12",
    "Answer Label": "inactive"
  },
  {
    "Molecule": "Cn1nc(C(=O)N2CC(CCl)c3c2cc(N)c2ccccc32)cc1NC(=O)Nc1cc(C(=O)N2CC(CCl)c3c2cc(N)c2ccccc32)nn1C (stereo unspecified)",
    "Study Target": "KM12",
    "Answer Label": "active"
  },
  {
    "Molecule": "Cn1c(=O)n2n(c1=O)Cc1cccc3cccc(c13)C2",
    "Study Target": "KM12",
    "Answer Label": "inactive"
  },
  {
    "Molecule": "CCCCC/C=C\\C=C1\\C(=O)C=C[C@@H]1C/C=C\\CCCC(=O)O",
    "Study Target": "KM12",
    "Answer Label": "inactive"
  },
  {
    "Molecule": "O=C1c2ccccc2C(=O)N1C/C=N/NS(=O)(=O)c1ccc(F)cc1",
    "Study Target": "KM12",
    "Answer Label": "inactive"
  }
]

We next turn to a different molecule, shown below.
Task: Given COCOCC[C@@H]1CC=CC(NC(=O)OCc2ccccc2)C1/C=C/C(=O)CCC1OCCO1 (stereo partly specified) , state the outcome it received in this test.
Output: inactive
